// values below are reported GI50
- Test system: SK-MEL-2
- procedure text: Cytotoxicity against Homo sapiens (human) SK-MEL-2 cells after 48 hr by SRB assay
- Type: functional
- run parameters: SK-MEL-2, 48 h
Write it as a number; the unit µM goes unstated.

O=S(=O)(NC(=S)Nc1ccccc1)c1ccc(N2N=C3c4ccccc4CC3C2c2cccs2)cc1 (stereo not drawn) : 55.9
O=C(Nc1ccccc1)NS(=O)(=O)c1ccc(N2N=C3c4ccccc4CC3C2c2cccnc2)cc1 (stereo not drawn) : 35.6
O=C(NC(=S)NS(=O)(=O)c1ccc(N2N=C3c4ccccc4CC3C2c2cccs2)cc1)c1ccccc1 (stereo not drawn) : 44
O=C1CCS/C(=N\S(=O)(=O)c2ccc(N3N=C4c5ccccc5CC4C3c3cccs3)cc2)N1c1ccccc1 (stereo not drawn) : 28

Query: What does the record list as GI50 for `NS(=O)(=O)c1ccc(-n2nc3c(c2-c2cccs2)Cc2ccccc2-3)cc1` ?
Result: 27.6

Query: What does the record list as GI50 for O=C1CCS/C(=N\S(=O)(=O)c2ccc(N3N=C4c5ccccc5CC4C3c3cccs3)cc2)N1C(=O)c1ccccc1 (stereo not drawn) ?
Result: 29.4
